Listed here are sequences together with their documented protein stability index.
- experimental.details: protein stability index of a GFP-peptide fusion (GPS, HEK-293T) (PSI 1-6); higher = more stable;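 note: 24-mer peptide tiles fused after GFP, lentivirally expressed, FACS-sorted into six equal bins by GFP/DsRed ratio, decoded by Illumina sequencing, PSI is the read-weighted mean bin number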
- assay.context: treatment: MLN4924 1 uM, 8 h; c terminus: native

Some solved entries appear below for comparison.
INSERT INTO measurements (polymer_sequence, result) VALUES
  ('SFSTGAGGWSNHHFCVILLGFLP [BET1L]', 2.99),
  ('VNHRIYYKGHIPEKLETFVSLHR [FEM1C]', 2.31),
  ('ALATRALPCPAHVVFRYQGVRMS [FCHSD1]', 2.58),
  ('DLVPAALGSLTTAQIARSVWRPW [HES6]', 2.32),
  ('KREAGNLTKATAPDQKSSGGRDS [SSNA1]', 5.25);

In: Dear colleague, I am looking for the recorded protein stability index of the following sequence: AKGKVQAELSQPLTAGGAISELL [RBBP5]
Out: 3.91

In: Dear colleague, I am looking for the recorded protein stability index of the following sequence: MPTQEVQELPIPSKLLEFLSYRI [WSB1]
Out: 3.05
